# Read-out: Monokine induced gamma interferon (MIG), CXCL9 (gene 4283)
# assay_comment: BSK_hDFCGF_MIG: BioMAP Diversity Plus: hDFCGF Assay for Monokine induced gamma interferon (MIG) Biomarker Activity (AID 2283063)
# condition_parameters: primary human foreskin fibroblasts; actives raise or lower the signal
# Description: BSK_hDFCGF is a cell-based, multiplexed-readout assay that uses foreskin fibroblast, a human skin primary cell, with measurements taken at 24 hours after chemical dosing in a 96-well plate.BSK_hDFCGF_MIG is an assay component measured in the BSK_hDFCGF assay. It measures MIG antibody related to regulation of gene expression using ELISA technology.Data from the assay component BSK_hDFCGF_MIG was analyzed into 1 assay endpoint. […]
Active and inactive are the calls of the source. How the source made its calls: active means hit-call score of the fitted dose curve at least 0.9, where 1 is the maximum; inactive means score below 0.9.
Reply using exactly one outcome from active, inactive

>>> label_class("CCCCOC(=O)c1ccc(O)cc1")
"inactive"
>>> label_class("COc1ccc2cc(S(=O)(=O)N[C@H](CC(=O)N[C@H](Cc3ccc(CN4[C@H](C)CCC[C@@H]4C)cc3)C(=O)N(C)C(C)C)c3ccc4c(c3)OCO4)ccc2c1")
"active"
>>> label_class("O=C(O)Cn1c(=O)n(Cc2ccc(Br)cc2F)c(=O)c2ccc(Cl)cc21")
"inactive"
>>> label_class("CCO[Si](CCCNC(N)=O)(OCC)OCC")
"inactive"
>>> label_class("O=C=NCCCCCCN=C=O")
"inactive"

Let us examine a further case.
Task: Can you look up the reported call for "Cc1cccc2ccccc12" for me?
Result: inactive
